molecular target: histamine H3 receptor (Homo sapiens, UniProt Q9Y5N1); construct: host or cells: cultured H3 cells (membranes); assay: histamine H3 functional antagonist assay using membrane prepared from cultured H3 cells; format: biochemical; conditions: 12 experiments; read-out: range of measured fpKi values
Sequence (Q9Y5N1 whole entry): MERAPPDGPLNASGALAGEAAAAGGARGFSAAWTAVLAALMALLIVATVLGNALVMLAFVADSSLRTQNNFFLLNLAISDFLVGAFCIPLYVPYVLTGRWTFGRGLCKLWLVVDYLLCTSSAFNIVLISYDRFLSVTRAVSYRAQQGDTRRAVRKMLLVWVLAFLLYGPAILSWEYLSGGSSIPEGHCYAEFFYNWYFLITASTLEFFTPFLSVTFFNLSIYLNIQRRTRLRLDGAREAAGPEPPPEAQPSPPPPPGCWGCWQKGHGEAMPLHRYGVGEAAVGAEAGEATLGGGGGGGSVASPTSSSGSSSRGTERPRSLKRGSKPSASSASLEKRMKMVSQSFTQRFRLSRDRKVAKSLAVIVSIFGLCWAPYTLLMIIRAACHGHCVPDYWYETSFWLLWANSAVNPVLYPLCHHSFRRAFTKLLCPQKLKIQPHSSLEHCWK
pKi: −log10 of the molar value.
metric: pKi

stdin: Look at this compound and give its reported pKi. CC(C)N1CCCN(C(=O)c2ccc(OC3CCOCC3)cc2)CC1.Cl [Example 2 Part C, hydrochloride]
stdout: 7.70 to 9.30
